# EXPERIMENTAL DETAILS: Serum stability test
# Assay type: in vitro ADME, human
# MEASUREMENT SETUP: human, human serum, 37° C., 2 h, 4.0 μM, ethyl acetate extraction; read-out: Recovery after serum incubation, by HPLC
# Method: CRANAD-2 (4.0 μM) was incubated at 37° C. for 2 h with 1.0 mL human serum, then ethyl acetate (4×5.0 mL) was added, stirred at room temperature for 10 min., and centrifuged to give clear organic supernatant. […] After the fluorescence measurement, the ethyl acetate solution was concentrated to 40 μL, and 10 μL was injected for HPLC analysis. By HPLC, the recovery of CRANAD-2 was about 75%, which was close to the result from fluorescence measurement. […]
PROPERTY LABEL: recovery at 2 h, 4 μM

input: Supply measured recovery at 2 h, 4 μM of `CN(C)c1ccc(/C=C/C2=CC(/C=C/c3ccc(N(C)C)cc3)=[O+][B-](F)(F)O2)cc1` in your reply.
output: ~75%

----------
# TARGET OR SYSTEM: Aβ40 aggregates (Homo sapiens)
# Construct: Synthetic amyloid-b protein (1-40) was purchased from rPeptide; purchased rPeptide (Bogart, Ga.)
# Sequence (P05067 672-711 limits assumed): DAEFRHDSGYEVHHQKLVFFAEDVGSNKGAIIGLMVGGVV
# EXPERIMENTAL DETAILS: In vitro Aβ aggregates binding constant measurement
# MEASUREMENT SETUP: Aβ40 aggregates in PBS, fluorescence intensity, nonlinear one-site regression; read-out: Binding constant (Kd) towards Aβ aggregates
Would you mind telling me the reported Kd of each entry?
Give bare numbers, in µM.

| LINE NOTATION | UNIT | Kd |
| --- | --- | --- |
| CN(C)c1ccc(/C=C/C2=CC(/C=C/c3ccc(N(C)C)cc3)=[O+][B-](F)(F)O2)cc1 | µM | 0.0387 |

With those in mind, consider the next compound.
input: Supply measured Kd of `COc1cc(C=CC2=CC(C=Cc3ccc(O)c(OC)c3)=[O+][B-](F)(F)O2)ccc1O` in your reply.
output: 0.001

----------
# EXPERIMENTAL DETAILS: Log P measurement (octanol/water)
# Type: physicochemical
PROPERTY LABEL: logP
Numbers only.

input: Supply measured logP of CN(C)c1ccc(/C=C/C2=CC(/C=C/c3ccc(N(C)C)cc3)=[O+][B-](F)(F)O2)cc1 [CRANAD-2] in your reply.
output: 3
